ASSAY REMARKS: Solubility calculated with ACD/I-lab at pH 7.4
STATED CONDITIONS: read-out: S
Give measured log10 of solubility for each item. Keep answers brief.
Values reflect log10 of reported solubility (µM).

Sample COC(=O)c1ccc2cc(-c3cccnc3)ccc2c1 ; log10 of solubility observed: 1.85

Per the records, this compound ( Brc1ccc2cc(-c3cccnc3)ccc2c1 ) has log10 of solubility equal to 0.11

Input COc1ccc2ccc(-c3cccnc3)c(Cl)c2c1 . Output log10 of solubility: 1.15

log10 of solubility for COc1ccc2cc(-c3cccnc3)ccc2c1Br is 1.59

The reported value for COc1ccc2cc(-c3cccnc3)ccc2c1 in terms of log10 of solubility is 1.90

Recorded result, N#Cc1ccc2cc(-c3cccnc3)ccc2c1 , log10 of solubility: 2.20

Documented log10 of solubility of c1ccc2cc(-n3ccnc3)ccc2c1 : 2.45

Sample c1cncc(-c2ccc3ccccc3c2)c1 ; log10 of solubility observed: 2.30

// sample COc1ccc2cc(-c3cccnc3)ccc2c1Cl , its log10 of solubility was 0.88

Reported log10 of solubility for COc1ccc2c(Cl)c(-c3cccnc3)ccc2c1Cl was 0.86

Given item Oc1ccc2cc(-c3cccnc3)ccc2c1 , the value recorded as its log10 of solubility is 2.36

====

Organism: Homo sapiens
ASSAY REMARKS: Ratio between inhibitory concentration of cytochrome P450 11B1 to cytochrome P450 11B2
Binarize Selectivity factor at 70; below is 1, at or above is -1.

Please state whether Selectivity factor is below 70 for c1ccc2ncc(-n3ccnc3)cc2c1
1

Is it true that Selectivity factor reported for COc1cc2ccccc2cc1-n1ccnc1 is less than 70?
1

Please determine if c1ccc2cc(-c3cnc[nH]3)ccc2c1 is below 70 in terms of Selectivity factor.
1

A record lists Brc1ccc2cc(-c3cccnc3)ccc2c1 . Is its Selectivity factor below 70?
-1

State whether 70 exceeds Selectivity factor recorded for COC(=O)c1ccc2cc(-c3cccnc3)ccc2c1 .
-1

Given the entry COc1ccc2cc(-c3cccnc3)ccc2c1Cl , would its reported Selectivity factor be below 70?
-1

Is Selectivity factor of COc1ccc2ccc(-c3cccnc3)c(Cl)c2c1 strictly below 70?
-1

Please indicate whether the reported Selectivity factor of c1ccc2cc(-c3cnco3)ccc2c1 is strictly below 70.
1

I wonder whether N#Cc1ccc2cc(-c3cccnc3)ccc2c1 has Selectivity factor below 70. Can you tell?
-1

Problem: For the molecule COc1ccc2cc(-n3ccnc3)ccc2c1 , is Selectivity factor under 70?
1

I'd appreciate it if you could check whether COc1ccc2c(Cl)c(-c3cccnc3)ccc2c1Cl has Selectivity factor smaller than 70.
-1

Is 70 strictly greater than the molecule's reported Selectivity factor? molecule: CCOc1ccc2cc(-c3cccnc3)ccc2c1
-1

Report whether reported Selectivity factor is lower than 70 (strictly) for COc1ccc2cc(-c3cccnc3)ccc2c1Br
-1

====

EXPERIMENTAL SYSTEM: Cytochrome P450 11B2, mitochondrial (Homo sapiens, UniProt P19099)
Sequence (P19099 whole entry): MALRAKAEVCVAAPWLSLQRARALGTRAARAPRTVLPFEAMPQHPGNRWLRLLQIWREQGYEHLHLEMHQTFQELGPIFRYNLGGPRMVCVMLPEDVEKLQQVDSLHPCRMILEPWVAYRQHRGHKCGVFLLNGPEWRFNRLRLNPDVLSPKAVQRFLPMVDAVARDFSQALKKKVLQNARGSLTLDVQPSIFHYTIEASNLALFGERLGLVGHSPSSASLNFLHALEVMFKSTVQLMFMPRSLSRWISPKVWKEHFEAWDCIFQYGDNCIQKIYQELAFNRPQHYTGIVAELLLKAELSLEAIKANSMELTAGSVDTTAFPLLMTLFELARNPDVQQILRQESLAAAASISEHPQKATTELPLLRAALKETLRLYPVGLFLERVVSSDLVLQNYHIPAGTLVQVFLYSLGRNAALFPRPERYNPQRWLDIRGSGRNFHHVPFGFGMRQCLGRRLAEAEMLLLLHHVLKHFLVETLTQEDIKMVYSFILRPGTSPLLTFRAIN
ASSAY REMARKS: Percent inhibition against human cytochrome P450 11B2 expressed in fission yeast, incubated with [14C]deoxycorticosterone
Design: concentration or dose not given beside the values
// label = satisfied if Inhibition is not less than 10%, otherwise not satisfied

Is it the case that CNC(=O)c1ccc2cc(-c3cccnc3)ccc2c1 has Inhibition reaching or exceeding 10%?
not satisfied

Does Inhibition meet or surpass 10% for c1ccc2cc(-c3cnc[nH]3)ccc2c1 ?
satisfied

Check if Inhibition >= 10% (inclusive). Item: COc1cc2ccccc2cc1-c1cccnc1
satisfied

Threshold query (Inhibition >= 10%) on COc1ccc2cc(-c3ccncc3)ccc2c1
not satisfied

Tell me whether Inhibition is at least 10% here: c1cncc(-c2cnc3ccccc3n2)c1
satisfied

Could you please find out whether COc1cc2ccccc2cc1-n1ccnc1 has Inhibition that meets 10% or exceeds it?
satisfied

Given the entry c1ccc2ncc(-n3ccnc3)cc2c1 , answer whether its Inhibition meets or surpasses 10%.
satisfied

In plain terms: is recorded Inhibition at least 10% for COc1ccc2cc(-n3ccnc3)ccc2c1 ?
satisfied

Could you verify whether the entry c1cncc(-c2cc3ccccc3c3ccccc23)c1 shows Inhibition of no less than 10%?
satisfied

Threshold query (Inhibition >= 10%) on COC(=O)c1ccc2cc(-c3cccnc3)ccc2c1
satisfied

Tell me whether Inhibition is at least 10% here: c1ccc(COc2ccc3cc(-c4cccnc4)ccc3c2)cc1
not satisfied

Check this compound for Inhibition at or above 10%: COc1ccc2cc(-c3cccnc3)ccc2c1-c1cccnc1
not satisfied

Is Inhibition at least 10%? Consider c1ccc2cc(-c3cnco3)ccc2c1
satisfied

Check if Inhibition >= 10% (inclusive). Item: NC(=O)c1ccc2cc(-c3cccnc3)ccc2c1
not satisfied

Decide: is the reported value of Inhibition for CCCOc1ccc2cc(-c3cccnc3)ccc2c1 equal to or greater than 10%?
satisfied

API: above_or_equal(metric=Inhibition, cutoff=10%) for item Cn1cncc1-c1ccc2ccccc2c1
satisfied
